The entries below are paired with their reported pEC50.
# SYSTEM TESTED: Neuronal acetylcholine receptor; alpha3/beta2 (Homo sapiens, UniProt P17787+P32297)
# Sequence (P17787 whole entry): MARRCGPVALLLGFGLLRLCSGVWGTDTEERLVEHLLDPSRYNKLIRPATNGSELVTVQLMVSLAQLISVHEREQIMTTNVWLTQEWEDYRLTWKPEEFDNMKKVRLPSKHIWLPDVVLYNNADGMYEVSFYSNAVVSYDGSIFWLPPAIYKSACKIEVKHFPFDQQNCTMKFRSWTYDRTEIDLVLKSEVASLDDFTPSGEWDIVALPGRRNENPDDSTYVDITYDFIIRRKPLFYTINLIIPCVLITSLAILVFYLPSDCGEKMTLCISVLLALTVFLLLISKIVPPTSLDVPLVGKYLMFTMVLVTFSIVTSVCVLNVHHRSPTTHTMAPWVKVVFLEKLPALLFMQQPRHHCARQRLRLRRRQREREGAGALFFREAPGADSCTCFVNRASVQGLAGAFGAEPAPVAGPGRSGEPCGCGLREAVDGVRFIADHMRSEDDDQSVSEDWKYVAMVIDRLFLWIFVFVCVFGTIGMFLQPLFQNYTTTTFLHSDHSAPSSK
# Sequence (P32297 whole entry): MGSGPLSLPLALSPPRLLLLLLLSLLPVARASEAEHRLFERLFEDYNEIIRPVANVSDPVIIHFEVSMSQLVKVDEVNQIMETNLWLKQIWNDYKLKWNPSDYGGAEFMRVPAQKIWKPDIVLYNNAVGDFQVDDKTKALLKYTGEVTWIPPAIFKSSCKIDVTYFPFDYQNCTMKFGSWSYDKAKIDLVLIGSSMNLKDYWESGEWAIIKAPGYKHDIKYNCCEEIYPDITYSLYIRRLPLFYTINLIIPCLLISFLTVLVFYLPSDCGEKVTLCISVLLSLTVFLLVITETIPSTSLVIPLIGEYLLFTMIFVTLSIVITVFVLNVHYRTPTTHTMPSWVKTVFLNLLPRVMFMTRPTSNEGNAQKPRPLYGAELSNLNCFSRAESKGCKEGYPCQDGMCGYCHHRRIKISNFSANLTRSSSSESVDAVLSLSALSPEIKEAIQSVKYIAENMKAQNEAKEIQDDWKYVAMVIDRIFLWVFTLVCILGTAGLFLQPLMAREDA
# EXPERIMENT SUMMARY: Effective concentration against Nicotinic acetylcholine receptor alpha3-beta2 expressed in xenopus oocytes
# Assay type: cell-based, Oocyte
// pEC50: -log10(molar conc.)

{"columns": ["STRUCTURE SMILES", "SYSTEM TESTED", "ASSAY ENDPOINT", "RESULT NUMBER"],
 "data": [
  ["O=c1cccc2n1C[C@@H]1CNC[C@H]2C1", "Neuronal acetylcholine receptor; alpha3/beta2 (Homo sapiens, UniProt P17787+P32297)", "pEC50", 4.17]
]}

# context switch: different compound, same pEC50
q: Give the measured pEC50 of C[N+]1(C)CCN(c2ccccc2)CC1 .
a: 4.25
